Target: T1, EsCas13d, nuclease-dead (Eubacterium siraeum, UniProt B0MS50, R295A;H300A;R849A;H854A)
T1 sequence: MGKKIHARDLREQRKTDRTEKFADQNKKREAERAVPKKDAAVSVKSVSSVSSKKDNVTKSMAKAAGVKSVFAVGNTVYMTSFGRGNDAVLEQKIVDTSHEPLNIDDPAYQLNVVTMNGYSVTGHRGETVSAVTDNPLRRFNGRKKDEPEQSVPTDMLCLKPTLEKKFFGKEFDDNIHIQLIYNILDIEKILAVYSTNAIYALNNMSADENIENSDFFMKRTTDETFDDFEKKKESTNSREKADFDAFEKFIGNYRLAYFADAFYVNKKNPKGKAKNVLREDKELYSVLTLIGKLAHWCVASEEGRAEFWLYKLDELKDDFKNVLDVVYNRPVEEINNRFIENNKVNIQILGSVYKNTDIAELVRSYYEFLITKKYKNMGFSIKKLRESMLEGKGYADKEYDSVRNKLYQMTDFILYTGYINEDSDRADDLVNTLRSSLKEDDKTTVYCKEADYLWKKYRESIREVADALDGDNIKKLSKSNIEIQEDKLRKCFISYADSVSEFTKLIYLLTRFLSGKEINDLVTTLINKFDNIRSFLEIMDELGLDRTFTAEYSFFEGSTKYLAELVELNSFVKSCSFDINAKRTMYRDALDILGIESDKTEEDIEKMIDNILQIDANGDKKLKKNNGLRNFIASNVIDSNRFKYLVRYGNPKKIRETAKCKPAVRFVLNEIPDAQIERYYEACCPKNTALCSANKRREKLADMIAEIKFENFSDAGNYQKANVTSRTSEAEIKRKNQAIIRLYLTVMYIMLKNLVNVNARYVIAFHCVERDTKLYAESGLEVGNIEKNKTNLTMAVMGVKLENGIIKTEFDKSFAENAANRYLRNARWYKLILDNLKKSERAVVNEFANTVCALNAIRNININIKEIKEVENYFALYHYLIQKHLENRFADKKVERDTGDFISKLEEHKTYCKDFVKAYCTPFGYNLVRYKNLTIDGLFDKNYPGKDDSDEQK
Test: crRNA (strand 1, pre-loaded); Mg2+; 40 mM Tris-HCl pH 7.5, 150 mM NaCl, 6 mM MgCl2, 1 mM DTT, 0.1% Tween-20, 0.2 mg/ml BSA; 25 C; 10 min per concentration, then washed
Conditions: tags: His6-TwinStrep-SUMO cleaved; N-terminal SNAP kept (SNAP-Surface 488); label: 3' end held by stalled T7 RNA polymerase
# Kd values compiled below
Field format: number, assumed nM, no unit text.

Worked set:
{"binder": "target 1 insA 3' of 15,insG 3' of 9 (mixed) RNA 1: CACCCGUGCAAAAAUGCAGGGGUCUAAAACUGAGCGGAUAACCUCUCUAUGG RNA 2: GGGAAUGGAUCCACAUCUACGAAUUCGUACCAUAGAGAAGGUUAGUCCGCUCACCGAGAUCGGAAGAGCACACGU", "Kd [nM]": 8.7}
{"binder": "target 2 MT 5'PFS GUA 3'PFS AUA (mixed) RNA 1: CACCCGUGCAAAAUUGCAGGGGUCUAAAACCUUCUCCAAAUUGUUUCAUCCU RNA 2: GGGAAUGGAUCCACAUCUACGAAUUCGUAAGGAUGAAACAAUUUGGAGAAGAUAAGAUCGGAAGAGCACACGU", "Kd [nM]": 6.1}
{"binder": "target 2 MT 5'PFS CAU 3'PFS CUA (mixed) RNA 1: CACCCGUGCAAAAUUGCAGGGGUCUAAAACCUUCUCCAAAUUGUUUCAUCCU RNA 2: GGGAAUGGAUCCACAUCUACGAAUUCCAUAGGAUGAAACAAUUUGGAGAAGCUAAGAUCGGAAGAGCACACGU", "Kd [nM]": 4.1}

// Kd value for target 1 MT 5'PFS GUU 3'PFS CCC (mixed) RNA 1: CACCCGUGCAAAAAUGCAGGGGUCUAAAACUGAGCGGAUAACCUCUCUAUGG RNA 2: GGGAAUGGAUCCACAUCUACGAAUUCGUUCCAUAGAGAGGUUAUCCGCUCACCCAGAUCGGAAGAGCACACGU : 26.5

meta.source: paper PMC10786891
